Test system: 362531-283-R-J2-PDC complex spheroid viability
Assay: Anticancer human tumor 362531-283-R-J2-PDC patient-derived colon adenocarcinoma cell line growth inhibition [RAS]
Conditions: second compound 0.00949 µM; first compound 0.01 µM; stronger effect = lower value
Source text: RAS pathway inhibitors in Combinations in Complex Spheroids A high-throughput screen of multi-cell type tumor spheroids was designed to identify active combinations of RAS pathway inhibitors and targeted small molecules. Complex spheroids include a stromal component modeled by human endothelial cells (HUVEC) and fibroblasts modeled by human mesenchymal stem cells (MSCs). […] Compounds. […] If the clinical Cmax for an agent had not been determined, the highest concentration tested was 10 microM. […]
Recorded measurements of viability, T/C, one per entry

{"molecule": "O=C(c1ccc(F)c(F)c1Nc1ccc(I)cc1F)N1CC(O)([C@@H]2CCCCN2)C1 + CCn1c(-c2cc(N3CCN(C)CC3)cnc2C(C)OC)c2c3cc(ccc31)-c1csc(n1)CC(NC(=O)C1CC1C)C(=O)N1CCCC(N1)C(=O)OCC(C)(C)C2", "viability, T/C (%)": 94.7}
{"molecule": "CC(C)n1nc(-c2ccc3oc(N)nc3c2)c2c(N)ncnc21 + CCn1c(-c2cccnc2C(C)OC)c2c3cc(ccc31)N1CCOC(CC(NC(=O)C(C(C)C)N(C)C(=O)C3(F)CCN(C(=O)C#CC(C)(C)N(C)C)CC3)C(=O)N3CCCC(N3)C(=O)OCC(C)(C)C2)C1", "viability, T/C (%)": 114}
{"molecule": "C=CC(=O)N1CCN(c2nc(OCC3CCCN3C)nc3c(F)c(-c4nc(N)cc(C)c4C(F)(F)F)c(Cl)cc23)C(C)C1 (stereo not drawn) + CCn1c(-c2cccnc2C(C)OC)c2c3cc(ccc31)N1CCOC(CC(NC(=O)C(C(C)C)N(C)C(=O)C3(F)CCN(C(=O)C#CC(C)(C)N(C)C)CC3)C(=O)N3CCCC(N3)C(=O)OCC(C)(C)C2)C1", "viability, T/C (%)": 122}
{"molecule": "CCN1CCN(Cc2ccc(Nc3ncc(F)c(-c4cc(F)c5nc(C)n(C(C)C)c5c4)n3)nc2)CC1 + CCn1c(-c2cccnc2C(C)OC)c2c3cc(ccc31)N1CCOC(CC(NC(=O)C(C(C)C)N(C)C(=O)C3(F)CCN(C(=O)C#CC(C)(C)N(C)C)CC3)C(=O)N3CCCC(N3)C(=O)OCC(C)(C)C2)C1", "viability, T/C (%)": 105}
{"molecule": "CC(C)n1nc(-c2ccc3oc(N)nc3c2)c2c(N)ncnc21 + CCn1c(-c2cc(N3CCN(C)CC3)cnc2C(C)OC)c2c3cc(ccc31)-c1csc(n1)CC(NC(=O)C1CC1C)C(=O)N1CCCC(N1)C(=O)OCC(C)(C)C2", "viability, T/C (%)": 94.7}
{"molecule": "CCN1CCN(Cc2ccc(Nc3ncc(F)c(-c4cc(F)c5nc(C)n(C(C)C)c5c4)n3)nc2)CC1 + CCn1c(-c2cc(N3CCN(C)CC3)cnc2C(C)OC)c2c3cc(ccc31)-c1csc(n1)CC(NC(=O)C1CC1C)C(=O)N1CCCC(N1)C(=O)OCC(C)(C)C2", "viability, T/C (%)": 112}
{"molecule": "Nc1ccn(C2OC(CO)C(O)C2(F)F)c(=O)n1 (stereo not drawn) + CCn1c(-c2cc(N3CCN(C)CC3)cnc2C(C)OC)c2c3cc(ccc31)-c1csc(n1)CC(NC(=O)C1CC1C)C(=O)N1CCCC(N1)C(=O)OCC(C)(C)C2", "viability, T/C (%)": 101}
{"molecule": "C=CC(=O)Nc1cc(Nc2nccc(-c3cn(C)c4ccccc34)n2)c(OC)cc1N(C)CCN(C)C + CCn1c(-c2cc(N3CCN(C)CC3)cnc2C(C)OC)c2c3cc(ccc31)-c1csc(n1)CC(NC(=O)C1CC1C)C(=O)N1CCCC(N1)C(=O)OCC(C)(C)C2", "viability, T/C (%)": 115}

---

tested on: 362531-283-R-J2-PDC complex spheroid viability; assay: Anticancer human tumor 362531-283-R-J2-PDC cell line growth inhibition [RAS]; conditions: second compound 1 µM; first compound 3.16 µM; active means viability on the fitted dose curve at most 10% of control; inactive means the rest;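 also: spheroids exposed to the agents for 7 days before readout; luminescence viability as percent of DMSO vehicle control wells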
Outcome codes: active, inactive

{"compound": "CC(=O)OC12COC1CC(O)C1(C)C(=O)C(O)C3=C(C)C(OC(=O)C(O)C(NC(=O)OC(C)(C)C)c4ccccc4)CC(O)(C(OC(=O)c4ccccc4)C21)C3(C)C (stereo unspecified) + C#Cc1c(F)ccc2cc(O)cc(-c3ncc4c(N5CC6CCC(C5)N6)nc(OCC56CCCN5CC(F)C6)nc4c3F)c12", "labelValue": "inactive"}
{"compound": "Cc1nc(N2CCC3(CC2)COC(C)C3N)c(CO)nc1Sc1ccnc(N)c1Cl (stereo unspecified) + C=CC(=O)N1CCN(c2nc(OCC3CCCN3C)nc3c(F)c(-c4nc(N)cc(C)c4C(F)(F)F)c(Cl)cc23)C(C)C1", "labelValue": "inactive"}
{"compound": "NC1c2ccccc2OC12CCN(c1cnc3c(N4CCCc5ncccc54)n[nH]c3n1)CC2 (stereo unspecified) + C=CC(=O)N1CCN(c2nc(OCC3CCCN3C)nc3c(F)c(-c4nc(N)cc(C)c4C(F)(F)F)c(Cl)cc23)C(C)C1", "labelValue": "inactive"}
{"compound": "CC(C)NCC(C(=O)N1CCN(c2ncnc3c2C(C)CC3O)CC1)c1ccc(Cl)cc1 (stereo unspecified) + C=CC(=O)N1CCN(c2nc(OCC3CCCN3C)nc3c(F)c(-c4nc(N)cc(C)c4C(F)(F)F)c(Cl)cc23)C(C)C1", "labelValue": "inactive"}
{"compound": "CCC(CC)c1cc(NC2CCC(N)C2)n2nccc2n1 (stereo unspecified) + C#Cc1c(F)ccc2cc(O)cc(-c3ncc4c(N5CC6CCC(C5)N6)nc(OCC56CCCN5CC(F)C6)nc4c3F)c12", "labelValue": "inactive"}
{"compound": "CCC(CC)c1cc(NC2CCC(N)C2)n2nccc2n1 (stereo unspecified) + C=CC(=O)N1CCN(c2nc(OCC3CCCN3C)nc3c(F)c(-c4nc(N)cc(C)c4C(F)(F)F)c(Cl)cc23)C(C)C1", "labelValue": "inactive"}
{"compound": "CC(=O)OC12COC1CC(O)C1(C)C(=O)C(O)C3=C(C)C(OC(=O)C(O)C(NC(=O)OC(C)(C)C)c4ccccc4)CC(O)(C(OC(=O)c4ccccc4)C21)C3(C)C (stereo unspecified) + C=CC(=O)N1CCN(c2nc(OCC3CCCN3C)nc3c(F)c(-c4nc(N)cc(C)c4C(F)(F)F)c(Cl)cc23)C(C)C1", "labelValue": "inactive"}
{"compound": "CC(C)NCC(C(=O)N1CCN(c2ncnc3c2C(C)CC3O)CC1)c1ccc(Cl)cc1 (stereo unspecified) + C#Cc1c(F)ccc2cc(O)cc(-c3ncc4c(N5CC6CCC(C5)N6)nc(OCC56CCCN5CC(F)C6)nc4c3F)c12", "labelValue": "inactive"}
{"compound": "CC1(O)CCCC1n1c(=O)c(C(F)F)cc2cnc(NC3CCN(S(C)(=O)=O)CC3)nc21 (stereo unspecified) + C=CC(=O)N1CCN(c2nc(OCC3CCCN3C)nc3c(F)c(-c4nc(N)cc(C)c4C(F)(F)F)c(Cl)cc23)C(C)C1", "labelValue": "inactive"}
{"compound": "CC1(O)CCCC1n1c(=O)c(C(F)F)cc2cnc(NC3CCN(S(C)(=O)=O)CC3)nc21 (stereo unspecified) + C#Cc1c(F)ccc2cc(O)cc(-c3ncc4c(N5CC6CCC(C5)N6)nc(OCC56CCCN5CC(F)C6)nc4c3F)c12", "labelValue": "inactive"}
{"compound": "C[C@@H](NC(=O)c1ncnc(N)c1Cl)c1ncc(C(=O)Nc2cc(C(F)(F)F)c(Cl)cn2)s1 + C#Cc1c(F)ccc2cc(O)cc(-c3ncc4c(N5CC6CCC(C5)N6)nc(OCC56CCCN5CC(F)C6)nc4c3F)c12", "labelValue": "inactive"}
{"compound": "CC(Nc1ccc2c(c1)OCCn1cc(N3C(=O)OCC3C(F)F)nc1-2)C(N)=O (stereo unspecified) + C#Cc1c(F)ccc2cc(O)cc(-c3ncc4c(N5CC6CCC(C5)N6)nc(OCC56CCCN5CC(F)C6)nc4c3F)c12", "labelValue": "inactive"}
{"compound": "CC(Nc1ccc2c(c1)OCCn1cc(N3C(=O)OCC3C(F)F)nc1-2)C(N)=O (stereo unspecified) + C=CC(=O)N1CCN(c2nc(OCC3CCCN3C)nc3c(F)c(-c4nc(N)cc(C)c4C(F)(F)F)c(Cl)cc23)C(C)C1", "labelValue": "inactive"}
{"compound": "C[C@@H](NC(=O)c1ncnc(N)c1Cl)c1ncc(C(=O)Nc2cc(C(F)(F)F)c(Cl)cn2)s1 + C=CC(=O)N1CCN(c2nc(OCC3CCCN3C)nc3c(F)c(-c4nc(N)cc(C)c4C(F)(F)F)c(Cl)cc23)C(C)C1", "labelValue": "inactive"}
{"compound": "NC1c2ccccc2OC12CCN(c1cnc3c(N4CCCc5ncccc54)n[nH]c3n1)CC2 (stereo unspecified) + C#Cc1c(F)ccc2cc(O)cc(-c3ncc4c(N5CC6CCC(C5)N6)nc(OCC56CCCN5CC(F)C6)nc4c3F)c12", "labelValue": "active"}
{"compound": "Cc1nc(N2CCC3(CC2)COC(C)C3N)c(CO)nc1Sc1ccnc(N)c1Cl (stereo unspecified) + C#Cc1c(F)ccc2cc(O)cc(-c3ncc4c(N5CC6CCC(C5)N6)nc(OCC56CCCN5CC(F)C6)nc4c3F)c12", "labelValue": "active"}

Recorded values, source PubChem BioAssay AID2060909.
